Target: T1, human AXL expressed on the cell surface of tumor cell lines (human, UniProt P30530 26-894)
T1 construct: whole, on cells; also called cell surface-expressed AXL; cell-based AXL
T1 sequence (looked up): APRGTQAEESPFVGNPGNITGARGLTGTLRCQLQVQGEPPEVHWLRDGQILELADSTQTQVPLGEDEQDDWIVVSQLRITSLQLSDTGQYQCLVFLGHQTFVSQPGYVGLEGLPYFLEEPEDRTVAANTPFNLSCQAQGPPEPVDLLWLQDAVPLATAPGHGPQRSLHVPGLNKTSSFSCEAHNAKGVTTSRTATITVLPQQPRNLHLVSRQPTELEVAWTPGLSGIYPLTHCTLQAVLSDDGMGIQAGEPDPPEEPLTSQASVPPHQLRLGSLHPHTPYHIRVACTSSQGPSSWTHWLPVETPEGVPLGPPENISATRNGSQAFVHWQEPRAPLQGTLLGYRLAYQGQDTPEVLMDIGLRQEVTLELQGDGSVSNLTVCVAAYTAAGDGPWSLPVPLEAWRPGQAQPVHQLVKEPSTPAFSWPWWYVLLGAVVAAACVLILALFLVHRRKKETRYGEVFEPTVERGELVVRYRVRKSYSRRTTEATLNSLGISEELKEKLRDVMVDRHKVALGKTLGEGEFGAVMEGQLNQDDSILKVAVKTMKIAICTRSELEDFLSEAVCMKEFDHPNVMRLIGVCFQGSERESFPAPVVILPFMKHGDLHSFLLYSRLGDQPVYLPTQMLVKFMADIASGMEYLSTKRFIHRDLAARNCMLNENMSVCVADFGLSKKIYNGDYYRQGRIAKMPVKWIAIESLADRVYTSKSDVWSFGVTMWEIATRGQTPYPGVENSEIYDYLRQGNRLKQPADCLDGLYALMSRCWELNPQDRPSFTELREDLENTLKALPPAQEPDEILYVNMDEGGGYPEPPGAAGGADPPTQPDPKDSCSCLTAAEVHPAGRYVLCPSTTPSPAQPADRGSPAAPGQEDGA
Assay: FACS on NCI-H292 cells, apparent Kd, human Fc format
Result type: Kd (nM)
Numbers only here, please. The scale is nM.

* NRC-sdAb008-Fc (VHH-human IgG1 Fc fusion) (Fc fusion, VHH fused N-terminally to human IgG1 Fc; also called NRC-sdAb008-hIgG1; not shown: human IgG1 Fc) QVKLEESGGGLVQAGGSLRLSCAASGSSGMINTMGWYRQAPGKQRELVARRSTGGTTNYADSVKGRFTISRDDANNTVYLQMNSLKPEDTAVYYCAIIWRTSDLTGRFNTWGQGTQVTVSS | 0.0414
* NRC-sdAb001-Fc (VHH-human IgG1 Fc fusion) (Fc fusion, VHH fused N-terminally to human IgG1 Fc, made in HEK293 cells; also called NRC-sdAb0001-Fc; NRC-sdAb001-hIgG1; not shown: human IgG1 Fc) QVKLEESGGGLVQAGGSLRLSCTASASISSFDIMGWYRQAPGKQRELVAAITTLDIANYRDSVKGRFTISRDNAKNTVYLQMDSLKPEDTARYHCAAFQSDQNYWGQGTQVTVSS | 0.105
* NRC-sdAb005-Fc (VHH-human IgG1 Fc fusion) (Fc fusion, VHH fused N-terminally to human IgG1 Fc; also called NRC-sdAb005-hIgG1; not shown: human IgG1 Fc) QVKLEESGGGLAQAGGSLRLSCAASGSISSINTIGWFRQAPGKQRELVAASDSGANRNYADSVKGRFTISRDNAKNTVYLQMNNLKPEDTAIYYCRAWGTGTISTMYWGQGTQVTVSS | 1.47

Bench note: what Kd did NRC-sdAb006-Fc (VHH-human IgG1 Fc fusion) (Fc fusion, VHH fused N-terminally to human IgG1 Fc; also called NRC-sdAb006-hIgG1; not shown: human IgG1 Fc) QVKLEESGGGLVQAGASLRLSCVASESIFGFNTMGWYRQAPGNERELVASISNSKRTMYADSVKGRFTISRDNAKNTVNLQMNNLKPEDTAVYYCRAWGIITSATVYWGQGTQVTVSS show?
2.12
